The following molecules are listed with their measured pIC50 values.
target: estrogen receptor (Homo sapiens (Human), UniProt P03372); assay: In vitro estrogen receptor binding assay; details: competition with [3H]17β-estradiol; cytosol of CHO cells overexpressing the estrogen receptor; read-out: Receptor Binding IC50's
Sequence (P03372 whole entry): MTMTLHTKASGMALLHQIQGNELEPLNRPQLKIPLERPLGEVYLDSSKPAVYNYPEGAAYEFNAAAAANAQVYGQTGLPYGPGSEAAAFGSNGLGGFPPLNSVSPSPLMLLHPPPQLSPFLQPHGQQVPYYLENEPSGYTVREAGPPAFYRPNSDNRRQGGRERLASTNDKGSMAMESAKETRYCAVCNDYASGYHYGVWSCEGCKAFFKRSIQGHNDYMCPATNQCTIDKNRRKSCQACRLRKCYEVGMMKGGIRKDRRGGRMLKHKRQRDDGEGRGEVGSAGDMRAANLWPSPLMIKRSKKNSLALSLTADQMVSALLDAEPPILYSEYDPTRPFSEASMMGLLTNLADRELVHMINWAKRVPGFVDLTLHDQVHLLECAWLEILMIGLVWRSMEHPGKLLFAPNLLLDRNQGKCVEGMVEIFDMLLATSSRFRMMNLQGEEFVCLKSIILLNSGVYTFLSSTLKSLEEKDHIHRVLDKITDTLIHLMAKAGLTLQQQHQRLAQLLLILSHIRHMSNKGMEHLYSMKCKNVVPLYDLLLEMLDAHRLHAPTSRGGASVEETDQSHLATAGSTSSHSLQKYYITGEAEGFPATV
Bear in mind: pIC50 is minus log10 of a mol/L concentration; give just that figure.

Worked examples, 4 molecules total:
Endpoint output: pIC50 of Cc1c(-c2ccc(OC(C)C)cc2)n(Cc2ccc(OCCN3CCCCC3)cc2)c2ccc(O)cc12 . Value? 7.00

Endpoint output: pIC50 of Cc1c(-c2ccc3c(c2)OCO3)n(Cc2ccc(OCCN3CCCCC3)cc2)c2ccc(O)cc12 . Value? 7.15

Endpoint output: pIC50 of Cc1c(-c2ccc(O)cc2)n(Cc2ccc(OCC[N+](C)(C)C)cc2)c2ccc(O)cc12.[I-] . Value? 7.00

Endpoint output: pIC50 of Cc1c(-c2ccc(OC3CCCC3)cc2)n(Cc2ccc(OCCN3CCCCC3)cc2)c2ccc(O)cc12 . Value? 7.10

***
Endpoint output: pIC50 of Cc1c(-c2ccccc2)n(Cc2ccc(OCCN3CCCCC3)cc2)c2ccccc12 . Value? 6.35

* * *

target: estrogen receptor (Homo sapiens (Human)); assay: 2×VIT ERE infection luciferase assay; assay type: cell-based; conditions: 1 uM compound + 1 nM 17β-estradiol (estrogen antagonism)
METRIC: Infection Luciferase Activity, 1 uM + 17β estradiol

Worked examples, 5 compounds total:
Endpoint output: Infection Luciferase Activity, 1 uM + 17β estradiol of Cc1c(-c2cccc(O)c2)n(Cc2ccc(OCCN3CCCCC3)cc2)c2ccc(O)cc12 . Value? −4%

Endpoint output: Infection Luciferase Activity, 1 uM + 17β estradiol of Cc1c(-c2ccc(O)cc2)n(Cc2ccc(OCCN3CCC(C)CC3)cc2)c2ccc(O)cc12 . Value? 10%

Endpoint output: Infection Luciferase Activity, 1 uM + 17β estradiol of Cc1c(-c2ccccc2)n(Cc2ccc(OCCN3CCCCC3)cc2)c2ccc(O)cc12 . Value? 0%

Endpoint output: Infection Luciferase Activity, 1 uM + 17β estradiol of Cc1c(-c2ccc(O)cc2)n(Cc2ccc(OCCN3CCC(O)CC3)cc2)c2ccc(O)cc12 . Value? 16%

Endpoint output: Infection Luciferase Activity, 1 uM + 17β estradiol of CCCCN(C)CCOc1ccc(Cn2c(-c3ccc(O)cc3)c(C)c3cc(O)ccc32)cc1 . Value? 5%

Please look at the following compound next.
Endpoint output: Infection Luciferase Activity, 1 uM + 17β estradiol of Cc1c(-c2ccc(O)cc2)n(Cc2ccc(OCCN(C(C)C)C(C)C)cc2)c2ccc(O)cc12 . Value? 7%

* * *

system: Immature Sprague-Dawley rats; experiment: Rat uterotrophic/antiuterotrophic bioassay; type: in vivo; settings: immature female rats, daily ip, 100 uG compound; wet weight
The following compounds are listed with their measured Uterine wt mg 100 uG cmpd values.
Answer in mg, number only, no unit symbol.

Worked examples, 5 compounds total:
Endpoint output: Uterine wt mg 100 uG cmpd of Cc1c(-c2ccc(O)cc2)n(Cc2ccc(OCCN3CCCCC3)cc2)c2ccc(O)cc12 [No. 97] . Value? 27.4

Endpoint output: Uterine wt mg 100 uG cmpd of CCN(CC)CCOc1ccc(Cn2c(-c3ccc(O)cc3)c(C)c3cc(O)ccc32)cc1 [No. 101] . Value? 65.1

Endpoint output: Uterine wt mg 100 uG cmpd of Cc1c(-c2ccccc2)n(Cc2ccc(OCCN3CCCCC3)cc2)c2ccccc12 [No. 85] . Value? 41.1

Endpoint output: Uterine wt mg 100 uG cmpd of Cc1c(-c2ccc(OC3CCCC3)cc2)n(Cc2ccc(OCCN3CCCCC3)cc2)c2ccc(O)cc12 [No. 122] . Value? 46.7

Endpoint output: Uterine wt mg 100 uG cmpd of Cc1c(-c2ccc(C(F)(F)F)cc2)n(Cc2ccc(OCCN3CCCCC3)cc2)c2ccc(O)cc12 [No. 123] . Value? 39.2

***
Endpoint output: Uterine wt mg 100 uG cmpd of Cc1c(-c2ccc(O)cc2)n(Cc2ccc(OCCN3CCCCC3)cc2)c2ccc(F)cc12 [No. 94] . Value? 28.1

Endpoint output: Uterine wt mg 100 uG cmpd of Cc1c(-c2ccc(O)cc2)n(Cc2ccc(OCCN(C)C)cc2)c2ccc(O)cc12 [No. 100] . Value? 59.9

Endpoint output: Uterine wt mg 100 uG cmpd of CC/C(=C(\c1ccccc1)c1ccc(OCCN(C)C)cc1)c1ccccc1 [tamoxifen] . Value? 71.4
